# System: A498
# Test details: NCI tumour cell line growth inhibition, 48 h
Activity calls are given as the source filed them. Cut-off read from the data, not from the text of the source: active = GI50 up to about 1.1 µM and inactive = higher.
Measured quantity: GI50

>>> df
                                   molecule           data_value
0  O=C1NC(=O)C(C(=O)C(=O)Nc2cccc(C(F)(F)F)c2)C(=O)N1  > 100 µM (inactive)
1      CCCCC1=C(C(=O)N2CCOCC2)C2(OCCO2)C1=O   27.8 µM (inactive)
2                 ClCCC[Si]12OCCN(CCO1)CCO2  > 100 µM (inactive)
3  CCOP(=O)(OCC)C1CC(O)C(=O)N1 (centres undefined)  > 100 µM (inactive)
